Where do the numbers come from? From BindingDB's records for doi:10.1016/s0960-894x(03)00628-0.

- Protocol Notes: Inhibition of Src protein tyrosine kinase
Quantity: IC50

Q: I am curious: what IC50 value has been reported for COCCOc1cc2nc3ncnc(Nc4cc(OC)c(Cl)cc4Cl)c3cc2cc1OC ?
Ans: > 10 µM
